meta.source: ChEMBL document CHEMBL1121649

Target: Heart phosphodiesterase (Bos taurus, UniProt Q01061+P14100+E1BN64)
Test: Inhibition of cAMP phosphodiesterase in bovine heart
Conditions: read-out: I50
Catalogue of IC50 values
Note: unit µM is implicit; provide only the numeric part.

response.value for Cn1c(=O)c2nc[nH]c2n(C)c1=O [THEOPHYLLINE] (field: IC50) = 412

# next compound below
response.value for CCC1C(=O)N(CC)c2sc3ccccc3[n+]2C1=O (configuration not stated) (field: IC50) = 153

---

Molecular target: Heart phosphodiesterase (Bos taurus, UniProt Q01061+P14100+E1BN64)
Test: Inhibition of cAMP phosphodiesterase in bovine heart
Type: protein assay
Catalogue of I50 values
Note: unit µM is implicit; provide only the numeric part.

response.value for CCOc1ccc2c(c1)sc1[n+]2C(=O)C(CC)C(=O)N1CC1CCCCC1 (centres undefined) (field: I50) = 8

response.value for CCOc1ccc2c(c1)sc1[n+]2C(=O)C(CC)C(=O)N1CC1CC1 (centres undefined) (field: I50) = 69

response.value for CCC1C(=O)N(CC2CCCC2)c2sc3ccccc3[n+]2C1=O (centres undefined) (field: I50) = 102

# next compound below
response.value for CCC1C(=O)N=C2Sc3ccccc3N2C1=O (centres undefined) (field: I50) = 467
